METHOD DESCRIPTION: gradient 5% acetonitrile 3 min, to 50% in 2 min, to 85% in 15 min, held 3 min, 100 µL/min
CONDITION SUMMARY: column: Zorbax Extend-C18 2.1 x 50 mm; eluents: water / acetonitrile, 0.1% formic acid
PROPERTY LABEL: RP-LC retention time (s)
Field format: number, assumed s, no unit text.

Past entries and their recorded results:
The reported RP-LC retention time of the compound `COc1ccc(-c2nnc(COc3ccc(NC(=O)CSc4ccncc4)cc3)o2)cc1` was 650

The reported RP-LC retention time of the compound `COc1ccc(C(=O)N2CCC3(CC2)NC(=O)c2cc(C)ccc2N3C)cc1OC` was 711

The reported RP-LC retention time of the compound O=C(CN1C(=O)NC(c2ccccc2Cl)C2=C1COC2=O)Nc1ccc(F)c(Cl)c1 (centres undefined) was 837

The reported RP-LC retention time of the compound `CCN(Cc1ccccc1)C(=O)Cn1c(N2CCCC2)nc(C)cc1=O` was 660

The reported RP-LC retention time of the compound `CCCNC(=O)C1CCN(c2nc3ccc(-c4cccnc4)nc3s2)CC1` was 604

---
The reported RP-LC retention time of the compound CCC(C(=O)NCCc1cnc[nH]1)n1c2ccccc2c2cnn(C)c(=O)c21 (centres undefined) was 603

The reported RP-LC retention time of the compound CCCN(CCC)C(=O)C1COC2(CCCCC2)N1C(=O)c1c(OC)cccc1OC (centres undefined) was 864

The reported RP-LC retention time of the compound `O=C(NC1CCCCC1)c1ccc(CN2CCN(Cc3ccccc3)C(=O)C2=O)cc1` was 787

The reported RP-LC retention time of the compound `O=C(c1csc(S(=O)(=O)N2CCC(C(=O)N3CCCCCC3)CC2)c1)N1CCCCCC1` was 876
